Observable: melting point

Some solved cases for reference:
Molecule	melting point
CC(C)(C)OC(=O)N1CCn2c(-c3ccccc3)cc(C(N)=O)c2C1	208 to 210 °C
COc1ccc(C(NCc2cccc(F)c2)c2cccc(Nc3c(N)c(=O)c3=O)c2)cc1 (stereo not given)	209 to 212 °C
CCN(CC)c1nn2ccccc2c1C(C)=O	59.5 to 60 °C
Cn1c([N+](=O)[O-])cnc1C1=NO[C@@H]2CCCCCC[C@@H]12 (relative stereo)	106 to 109 °C
CCOC(=O)c1nc2ccc(Cl)cc2c(=O)[nH]1	249 to 251 °C
CC(C)(C)OC(=O)NCc1cc(C(C)(C)C)cc(I)c1O	196 to 197 °C

Asked: Look at this molecule and give its reported melting point. N#CNC(=NCC(O)c1cccc(O)c1)NCCSCc1csc(NC(=N)N)n1 (stereo not given)
Given back: 162 to 164 °C

Asked: Consider next the molecule O=C(N[C@H]1CC[C@H](CCN2CCN(c3nccc4c3CCO4)CC2)CC1)c1ccc(Cl)cc1 in the same way.
Given back: 226 °C

Asked: Consider next the molecule Cc1nc2sccn2c(=O)c1C in the same way.
Given back: 112 to 113 °C

Asked: Consider next the molecule COc1cc2c(cc1Nc1ncc(Cl)c(N[C@@H]3CCCC[C@H]3NS(C)(=O)=O)n1)CCN(C(=O)C(F)(F)F)CC2 in the same way.
Given back: 98 to 107 °C

Asked: Consider next the molecule CCOC(=O)c1ccc(/C=C(/COCc2ccc(OC)cc2)Cn2ccnc2)c(Cl)c1 in the same way.
Given back: 41 to 42 °C

Asked: Consider next the molecule O=C(CCl)Nc1ccc2c(c1NC(=O)c1cccc(Cl)c1)C(=O)c1ccccc1C2=O in the same way.
Given back: 188 to 189 °C

Asked: Consider next the molecule COC(=O)c1ccccc1NC(=O)CN1CCNCC1 in the same way.
Given back: 94 to 96 °C

Asked: Consider next the molecule CC(=O)N1CCN(c2cc3nc(C(C)(C)C)sc3cc2N)CC1 in the same way.
Given back: 182 to 185 °C

Asked: Consider next the molecule NC(=O)c1ccc2c(c1)C1(COc3cc4c(cc31)OCCO4)C(=O)N2Cc1ccccn1 (stereo not given) in the same way.
Given back: 220 to 222 °C
